Values from BigSolDB 2.1

Settings: in isopropanol, 323.15 K
TEST_READOUT: solubility (mole fraction)
Number only, please.

Item C=CC1=C(C(=O)O)N2C(=O)[C@@H](NC(=O)/C(=N\OCC(=O)O)c3csc(N)n3)[C@H]2SC1.O.O.O has what recorded solubility (mole fraction)?
0.0035

###

Details: in ethanol, 283.15 K
TEST_READOUT: solubility (mole fraction)
Simply state the number, no unit and no words.

What does the data say about its solubility (mole fraction)? Entry: C=CC1=C(C(=O)O)N2C(=O)[C@@H](NC(=O)/C(=N\OCC(=O)O)c3csc(N)n3)[C@H]2SC1.O.O.O
0.0021

###

Conditions: in ethyl acetate, 303.15 K
TEST_READOUT: solubility (mole fraction)
In your answer, state the number alone without any accompanying words.

Record request: solubility (mole fraction) value, item C=CC1=C(C(=O)O)N2C(=O)[C@@H](NC(=O)/C(=N\OCC(=O)O)c3csc(N)n3)[C@H]2SC1.O.O.O
0.00159
